Test system: 266295-075-R-J1-PDC spheroid viability
measurement-protocol: Anticancer human tumor 266295-075-R-J1-PDC patient-derived head and neck squamous carcinoma cell line growth inhibition [POLQ]
test-conditions: second compound 1 µM; first compound 0.316 µM; active compounds read low; spheroids with HUVEC and MSC
Reported viability, T/C values for a set of molecules
The reply should contain only the number, in %.

QUERY: Supply recorded viability, T/C for CC1COCCN1c1cc(C2(O)CC3CCC(C2)O3)c2cnn(-c3ccn[nH]3)c2n1 (stereo not given) + Nc1ccc(C#CCN(C(=O)Cc2ncc(C(F)(F)F)cc2C(F)(F)F)c2ccc(F)cc2)nn1 here.
RESULT: 63.1

* * *

Tested on: 266295-075-R-J1-PDC spheroid viability
measurement-protocol: Anticancer human tumor 266295-075-R-J1-PDC cell line growth inhibition [POLQ];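 note: spheroids exposed to compounds for seven days before readout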
test-conditions: second compound 0.0316 µM; first compound 10 µM; active compounds read low; spheroids with HUVEC and MSC
Param label: returns satisfied when viability, T/C < 80%, returns not satisfied otherwise, including exact equality.

Look over these answered cases.
compound: CNCc1ccc(-c2[nH]c3cc(F)cc4c3c2CCNC4=O)cc1 + Cc1cccc(N(C)C(=O)C2C(O)CCN2c2nc(C)cc(C(F)(F)F)c2C#N)c1
target-of-assay: 266295-075-R-J1-PDC spheroid viability
group-label: not satisfied
//
compound: C#Cc1c(F)ccc2cc(O)cc(-c3ncc4c(N5CC6CCC(C5)N6)nc(OCC56CCCN5CC(F)C6)nc4c3F)c12 (stereo unspecified) + COC1C(OC(N)=O)C(O)C(Oc2ccc3c(O)c(NC(=O)c4ccc(O)c(CC=C(C)C)c4)c(=O)oc3c2C)OC1(C)C
target-of-assay: 266295-075-R-J1-PDC spheroid viability
group-label: satisfied
//
compound: CC(C)n1c(=O)n(C)c2cnc3cc(F)c(-c4ccc(OCCCN5CCCCC5)nc4)cc3c21 + COC1C(OC(N)=O)C(O)C(Oc2ccc3c(O)c(NC(=O)c4ccc(O)c(CC=C(C)C)c4)c(=O)oc3c2C)OC1(C)C
target-of-assay: 266295-075-R-J1-PDC spheroid viability
group-label: satisfied

QUERY: Hello, is viability, T/C of the following compound strictly smaller than 80%? O=c1[nH]cc(F)c(=O)[nH]1 + COC1C(OC(N)=O)C(O)C(Oc2ccc3c(O)c(NC(=O)c4ccc(O)c(CC=C(C)C)c4)c(=O)oc3c2C)OC1(C)C
RESULT: not satisfied

QUERY: Hello, is viability, T/C of the following compound strictly smaller than 80%? CC1COCCN1c1cc(-c2ccnn2C)c2ccnc(-c3ccn[nH]3)c2n1 (stereo unspecified) + Nc1ccc(C#CCN(C(=O)Cc2ncc(C(F)(F)F)cc2C(F)(F)F)c2ccc(F)cc2)nn1
RESULT: satisfied

QUERY: Hello, is viability, T/C of the following compound strictly smaller than 80%? COc1cc2cc(C(=O)CCC(=O)O)sc2cc1OC + Nc1ccc(C#CCN(C(=O)Cc2ncc(C(F)(F)F)cc2C(F)(F)F)c2ccc(F)cc2)nn1
RESULT: not satisfied

QUERY: Hello, is viability, T/C of the following compound strictly smaller than 80%? C=CC(=O)N1CCN(c2nc(=O)n(-c3c(C)ccnc3C(C)C)c3nc(-c4c(O)cccc4F)c(F)cc23)C(C)C1 (stereo unspecified) + COC1C(OC(N)=O)C(O)C(Oc2ccc3c(O)c(NC(=O)c4ccc(O)c(CC=C(C)C)c4)c(=O)oc3c2C)OC1(C)C
RESULT: not satisfied

QUERY: Hello, is viability, T/C of the following compound strictly smaller than 80%? O=C(c1cc(Cc2n[nH]c(=O)c3ccccc23)ccc1F)N1CCN(C(=O)C2CC2)CC1 + Nc1ccc(C#CCN(C(=O)Cc2ncc(C(F)(F)F)cc2C(F)(F)F)c2ccc(F)cc2)nn1
RESULT: not satisfied

QUERY: Hello, is viability, T/C of the following compound strictly smaller than 80%? CC1COCCN1c1cc(C2(O)CC3CCC(C2)O3)c2cnn(-c3ccn[nH]3)c2n1 (stereo unspecified) + Nc1ccc(C#CCN(C(=O)Cc2ncc(C(F)(F)F)cc2C(F)(F)F)c2ccc(F)cc2)nn1
RESULT: satisfied

QUERY: Hello, is viability, T/C of the following compound strictly smaller than 80%? CCCS(=O)(=O)Nc1ccc(F)c(C(=O)c2c[nH]c3ncc(-c4ccc(Cl)cc4)cc23)c1F + Cc1cccc(N(C)C(=O)C2C(O)CCN2c2nc(C)cc(C(F)(F)F)c2C#N)c1
RESULT: not satisfied

* * *

Tested on: 266295-075-R-J1-PDC spheroid viability
measurement-protocol: Anticancer human tumor 266295-075-R-J1-PDC cell line growth inhibition [POLQ];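 note: spheroids exposed to compounds for seven days before readout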
test-conditions: second compound 10 µM; first compound 0.000316 µM; active compounds read low; spheroids with HUVEC and MSC
measured-endpoint: viability, T/C (%)
The reply should contain only the number, in %.

Consider the following illustrative entries.
compound: Cn1ncnc1[C@H]1c2n[nH]c(=O)c3cc(F)cc(c23)N[C@@H]1c1ccc(F)cc1 + COC1C(OC(N)=O)C(O)C(Oc2ccc3c(O)c(NC(=O)c4ccc(O)c(CC=C(C)C)c4)c(=O)oc3c2C)OC1(C)C
viability, T/C [%]: 101
//
compound: CC[C@@]1(O)C(=O)OCc2c1cc1n(c2=O)Cc2cc3c(CN(C)C)c(O)ccc3nc2-1 + Cc1cccc(N(C)C(=O)C2C(O)CCN2c2nc(C)cc(C(F)(F)F)c2C#N)c1
viability, T/C [%]: 122

Turning to the following compound.
QUERY: Supply recorded viability, T/C for CC[C@@]1(O)C(=O)OCc2c1cc1n(c2=O)Cc2cc3c(CN(C)C)c(O)ccc3nc2-1 + Nc1ccc(C#CCN(C(=O)Cc2ncc(C(F)(F)F)cc2C(F)(F)F)c2ccc(F)cc2)nn1 here.
RESULT: 97.2

* * *

Test system: 266295-075-R-J1-PDC spheroid viability
measurement-protocol: Anticancer human tumor 266295-075-R-J1-PDC cell line growth inhibition [POLQ];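 note: spheroids exposed to compounds for seven days before readout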
test-conditions: second compound 0.316 µM; first compound 0.0316 µM; active compounds read low; spheroids with HUVEC and MSC
Reported viability, T/C values for a set of compounds
The reply should contain only the number, in %.

Consider the following illustrative entries.
compound: CCc1cc2c(N3CCc4c(cc(Cn5ccnc5)cc4-c4cn(C)nc4C(F)(F)F)C3=O)cc(C)nc2c(OC)n1 + COC1C(OC(N)=O)C(O)C(Oc2ccc3c(O)c(NC(=O)c4ccc(O)c(CC=C(C)C)c4)c(=O)oc3c2C)OC1(C)C
unit-tag: %
obs-value: 85.9
//
compound: C=CC(=O)N1CCN(c2nc(=O)n(-c3c(C)ccnc3C(C)C)c3nc(-c4c(O)cccc4F)c(F)cc23)C(C)C1 (stereo not given) + Nc1ccc(C#CCN(C(=O)Cc2ncc(C(F)(F)F)cc2C(F)(F)F)c2ccc(F)cc2)nn1
unit-tag: %
obs-value: 89.8
//
compound: O=c1[nH]cc(F)c(=O)[nH]1 + COC1C(OC(N)=O)C(O)C(Oc2ccc3c(O)c(NC(=O)c4ccc(O)c(CC=C(C)C)c4)c(=O)oc3c2C)OC1(C)C
unit-tag: %
obs-value: 103
//
compound: COc1ccc([C@@H](O)c2cc(-c3ncnc4cc(N5CCOCC5)ccc34)c(F)cc2Cl)nn1 + Nc1ccc(C#CCN(C(=O)Cc2ncc(C(F)(F)F)cc2C(F)(F)F)c2ccc(F)cc2)nn1
unit-tag: %
obs-value: 93
//
compound: COc1cc(C2c3cc4c(cc3C(OC3OC5COC(C)OC5C(O)C3O)C3COC(=O)C23)OCO4)cc(OC)c1O (stereo not given) + Nc1ccc(C#CCN(C(=O)Cc2ncc(C(F)(F)F)cc2C(F)(F)F)c2ccc(F)cc2)nn1
unit-tag: %
obs-value: 97
//
compound: CC1COCCN1c1cc(-c2ccnn2C)c2ccnc(-c3ccn[nH]3)c2n1 (stereo not given) + Nc1ccc(C#CCN(C(=O)Cc2ncc(C(F)(F)F)cc2C(F)(F)F)c2ccc(F)cc2)nn1
unit-tag: %
obs-value: 90.2

Turning to the following compound.
QUERY: Supply recorded viability, T/C for COc1cccc2c1C(=O)c1c(O)c3c(c(O)c1C2=O)CC(O)(C(=O)CO)CC3OC1CC(N)C(O)C(C)O1 (stereo not given) + COC1C(OC(N)=O)C(O)C(Oc2ccc3c(O)c(NC(=O)c4ccc(O)c(CC=C(C)C)c4)c(=O)oc3c2C)OC1(C)C here.
RESULT: 102

* * *

Tested on: 266295-075-R-J1-PDC spheroid viability
measurement-protocol: Anticancer human tumor 266295-075-R-J1-PDC cell line growth inhibition [POLQ];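 note: spheroids exposed to compounds for seven days before readout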
test-conditions: second compound 0.1 µM; first compound 0.316 µM; active compounds read low; spheroids with HUVEC and MSC
Reported viability, T/C values for a set of molecules
The reply should contain only the number, in %.

Consider the following illustrative entries.
molecule: CCCS(=O)(=O)Nc1ccc(F)c(C(=O)c2c[nH]c3ncc(-c4ccc(Cl)cc4)cc23)c1F + Nc1ccc(C#CCN(C(=O)Cc2ncc(C(F)(F)F)cc2C(F)(F)F)c2ccc(F)cc2)nn1
target-of-assay: 266295-075-R-J1-PDC spheroid viability
measured-endpoint: viability, T/C
obs-value: 99.2
--
molecule: O=c1[nH]cc(F)c(=O)[nH]1 + COC1C(OC(N)=O)C(O)C(Oc2ccc3c(O)c(NC(=O)c4ccc(O)c(CC=C(C)C)c4)c(=O)oc3c2C)OC1(C)C
target-of-assay: 266295-075-R-J1-PDC spheroid viability
measured-endpoint: viability, T/C
obs-value: 86.8

Turning to the following molecule.
QUERY: Supply recorded viability, T/C for CC1COCCN1c1cc(C2(O)CC3CCC(C2)O3)c2cnn(-c3ccn[nH]3)c2n1 (stereo not drawn) + Cc1cccc(N(C)C(=O)C2C(O)CCN2c2nc(C)cc(C(F)(F)F)c2C#N)c1 here.
RESULT: 76.2
